Each record here notes measured protein stability index.
B1: CROP (parent)
chain: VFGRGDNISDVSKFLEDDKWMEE

variants of: B1; test: protein stability index of a GFP-peptide fusion (GPS, HEK-293T) (PSI 1-6); higher = more stable; settings: c terminus: native;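 also: lentivirally expressed fusions sorted by FACS into six bins by GFP to DsRed ratio, PSI derived from sequencing read proportions per bin multiplied by bin number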
# output: bare number, no unit

variant_identifier=W20H measured_property="protein stability index" value_measured=4.34
variant_identifier=K19F measured_property="protein stability index" value_measured=3.11
variant_identifier=S12G measured_property="protein stability index" value_measured=1.41
variant_identifier=E23Q measured_property="protein stability index" value_measured=4.37
variant_identifier=W20I measured_property="protein stability index" value_measured=3.97

Q: May I ask what protein stability index has been recorded for "G5Q" ?
A: 2.3

Q: Next up: "F2E"
A: 4.33

Q: Next up: "D18H"
A: 1.49

Q: Next up: "K13E"
A: 2.41

Q: Next up: "D18T"
A: 1.78
